meta.source: patent US20230374132A1

The binders listed here are annotated with their kon.
- target of assay: T1, human CD3 E&D complex protein (Sino Biological Inc., CT026H0323H) (human, UniProt P07766 23-126; P04234 22-105)
- T1 construct: bought heterodimer; also called human CD3 protein (CT026H0323H)
- T1 sequence (P07766 23-126, chain 1 of 2): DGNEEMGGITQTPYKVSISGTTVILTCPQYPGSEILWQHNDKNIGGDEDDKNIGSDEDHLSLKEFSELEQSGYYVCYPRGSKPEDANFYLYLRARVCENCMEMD
- T1 sequence (P04234 22-105, chain 2 of 2): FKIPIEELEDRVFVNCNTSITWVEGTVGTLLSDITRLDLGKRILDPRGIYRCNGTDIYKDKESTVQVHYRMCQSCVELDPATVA
- assay comment: BLI, antibody on sensor
Please reply with the bare figure in M⁻¹ s⁻¹ and do not write the unit itself.

Consider the following illustrative entries.
1. hzsp34.106 (antibody, human IgG1, lambda, L234A L235A, V domains shown, CDR mutant of hzsp34.24; IgG1 L234A L235A, lambda) VH: EVQLVESGGGLVQPGGSLKLSCAASGFTFNTYAMNWVRQASGKGLEWVGRIRSKYNNYATYYADSVKDRFTISRDDSKSTLYLQMNSLKTEDTAVYYCARHGNFGQSYVSWFAYWGQGTTVTVSS VL: QAVVTQEPSLTVSPGGTVTLTCRSSTGAVTTSGYANWVQQKPGQAPRGLIGGTNKRAPGVPARFSGSLLGDKAALTLLGAQPEDEAEYYCALWYSNLWVFGQGTKLTVLG	236000
2. hzsp34.113 (antibody, human IgG1, lambda, L234A L235A, V domains shown, CDR mutant of hzsp34.24; IgG1 L234A L235A, lambda) VH: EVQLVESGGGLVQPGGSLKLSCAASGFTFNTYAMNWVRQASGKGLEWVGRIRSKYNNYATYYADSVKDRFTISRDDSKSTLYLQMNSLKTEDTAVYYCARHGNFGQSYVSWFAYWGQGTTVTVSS VL: QAVVTQEPSLTVSPGGTVTLTCRSSTGAVTTSNYANWVQQKPGQAPRGLIGGTNKRAPGVPARFSGSLLGDKAALTLLGAQPEDEAEYYCALAASNLWVFGQGTKLTVLG	196000
3. hzsp34.116 (antibody, human IgG1, lambda, L234A L235A, V domains shown, CDR mutant of hzsp34.24; IgG1 L234A L235A, lambda) VH: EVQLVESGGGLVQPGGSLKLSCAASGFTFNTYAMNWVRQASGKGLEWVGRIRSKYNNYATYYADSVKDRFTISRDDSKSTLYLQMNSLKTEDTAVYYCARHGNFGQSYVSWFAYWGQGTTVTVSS VL: QAVVTQEPSLTVSPGGTVTLTCRSSTGAVTTSNYANWVQQKPGQAPRGLIGGTNSRAPGVPARFSGSLLGDKAALTLLGAQPEDEAEYYCALWYSDLWVFGQGTKLTVLG	223000
4. hzsp34.107 (antibody, human IgG1, lambda, L234A L235A, V domains shown, CDR mutant of hzsp34.24; IgG1 L234A L235A, lambda) VH: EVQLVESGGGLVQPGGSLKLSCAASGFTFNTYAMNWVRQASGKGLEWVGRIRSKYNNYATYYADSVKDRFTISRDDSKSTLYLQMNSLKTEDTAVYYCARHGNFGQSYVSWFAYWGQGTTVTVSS VL: QAVVTQEPSLTVSPGGTVTLTCRSSTGAVTTSNYANWVQQKPGQAPRGLIGGTNKRAPGVPARFSGSLLGDKAALTLLGAQPEDEAEYYCALAYSNLWVFGQGTKLTVLG	167000
5. hzsp34.85 (antibody, human IgG1, lambda, L234A L235A, V domains shown, CDR mutant of hzsp34.24; IgG1 L234A L235A, lambda) VH: EVQLVESGGGLVQPGGSLKLSCAASGFTFNTYAMNWVRQASGKGLEWVGRIRSKYNGYATYYADSVKDRFTISRDDSKSTLYLQMNSLKTEDTAVYYCARHGNFGQSYVSWFAYWGQGTTVTVSS VL: QAVVTQEPSLTVSPGGTVTLTCRSSTGAVTTSNYANWVQQKPGQAPRGLIGGTNKRAPGVPARFSGSLLGDKAALTLLGAQPEDEAEYYCALWYSNLWVFGQGTKLTVLG	230000

Here is the next item to consider.
So for hzsp34.99 (antibody, human IgG1, lambda, L234A L235A, V domains shown, CDR mutant of hzsp34.24; IgG1 L234A L235A, lambda) VH: EVQLVESGGGLVQPGGSLKLSCAASGFTFNTYAMNWVRQASGKGLEWVGRIRSKYNNYATYYADSVKDRFTISRDDSKSTLYLQMNSLKTEDTAVYYCARHGNAYQSYVSWFAYWGQGTTVTVSS VL: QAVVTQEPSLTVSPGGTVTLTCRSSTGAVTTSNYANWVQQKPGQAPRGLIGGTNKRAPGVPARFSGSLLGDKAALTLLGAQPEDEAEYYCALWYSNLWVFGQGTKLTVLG , the logged kon turned out to be 114000
